# Test system: SK-MEL-2 melanoma
# experimentalProtocol: NCI-60 one-dose screen, 48 h (100 = growth as untreated, 0 = no growth, -100 = all killed)
# runConditions: 10 µM unless noted
Compounds without any hit were thinned out: in the full panel of roughly 83,000, 20% have a hit.
Threshold-based label: growth under 90% gives condition met, growth not under 90% gives condition not met.

COc1cc(-c2nc3sccn3c2-c2ccnc(NCCNS(=O)(=O)c3ccc(F)cc3)n2)ccc1F    condition met
[O-][n+]1ccccc1CCN(O)CCc1cccc[n+]1[O-]    condition not met
Clc1cc(Cl)cc(N2N=C(c3cccc(Nc4ccncc4)c3)CC2c2ccc3c(c2)OCO3)c1 (stereo not given)    condition met

Let's switch to this compound now.
Does the reported growth of CC(=O)c1c(C)[nH]c(-c2nc3ccc(N4CCN(C)CC4)cc3[nH]2)c1-c1ccccc1 stay below 90%? condition met
